Overview of recorded pIC50 for various binders
- measurement-target: T1, human TNFα (human, UniProt P01375 77-233)
- T1 construct: Coated on plates, coupled to a CM5 chip, or added in solution (10 ng/ml) in the TNF receptor assay; the assay paragraphs often print only 'TNF'; also called TNF alpha; TAR1
- T1 sequence (P01375 77-233 limits assumed): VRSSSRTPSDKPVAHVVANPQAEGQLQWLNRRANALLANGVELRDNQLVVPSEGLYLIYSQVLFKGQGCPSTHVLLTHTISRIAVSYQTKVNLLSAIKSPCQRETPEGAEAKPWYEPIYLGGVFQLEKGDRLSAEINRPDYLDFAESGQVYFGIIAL
- assay-text: TNF receptor assay: inhibition of TNF binding to TNFR1-Fc (ELISA)
pIC50: −log10 of the molar value.

Completed entries (count: 3):
binder	pIC50
dAb1 CH/TAR1-5-19CK Fab (Fab, V domains shown, not shown: large carriers, also called TAR1-5-19CK d1CH) V domain 1: DIQMTQSPSSLSASVGDRVTITCRASQSIYDALEWYQQKPGKAPKLLIYTASRLQSGVPSRFSGSGSGTDFTLTISSLQPEDFATYYCQQVMQRPVTFGQGTKVEIKR V domain 2: DIQMTQSPSSLSASVGDRVTITCRASQSIDSYLHWYQQKPGKAPKLLIYSASELQSGVPSRFSGSGSGTDFTLTISSLQPEDFATYYCQQVVWRPFTFGQGTKVEIKR	~8.22
TAR1-5-19CH/dAb1 CK Fab (Fab, V domains shown, not shown: large carriers, also called TAR1-5-19CH d1CK) V domain 1: DIQMTQSPSSLSASVGDRVTITCRASQSIDSYLHWYQQKPGKAPKLLIYSASELQSGVPSRFSGSGSGTDFTLTISSLQPEDFATYYCQQVVWRPFTFGQGTKVEIKR V domain 2: DIQMTQSPSSLSASVGDRVTITCRASQSIYDALEWYQQKPGKAPKLLIYTASRLQSGVPSRFSGSGSGTDFTLTISSLQPEDFATYYCQQVMQRPVTFGQGTKVEIKR	~8.22
TAR1-5CH/dAb1 CK Fab (Fab, V domains shown, not shown: large carriers) V domain 1: DIQMTQSPSSLSASVGDRVTITCRASQSIFMNLLWYQQKPGKAPKLLIYNASVLQSGVPSRFSGSGSGTDFTLTISSLQPEDFATYYCQQVVWRPFTFGQGTKVEIKR V domain 2: DIQMTQSPSSLSASVGDRVTITCRASQSIYDALEWYQQKPGKAPKLLIYTASRLQSGVPSRFSGSGSGTDFTLTISSLQPEDFATYYCQQVMQRPVTFGQGTKVEIKR	~7.05

Turning now to a further binder:
For record TAR1-5-19CH/dAb3CK Fab (Fab, V domains shown, not shown: large carriers, also called TAR1-5-19CH d3CK) V domain 1: DIQMTQSPSSLSASVGDRVTITCRASQSIDSYLHWYQQKPGKAPKLLIYSASELQSGVPSRFSGSGSGTDFTLTISSLQPEDFATYYCQQVVWRPFTFGQGTKVEIKR V domain 2: DIQMTQSPSSLSASVGDRVTITCRASQSVKEFLWWYQQKPGKAPKLLIYMASNLQSGVPSRFSGSGSGTDFTLTISSLQPEDFATYYCQQKFKLPRTFGQGTKVEIKR the listed pIC50 is ~8.52
